Test system: Kochia (Kochia scoparia)
EXPERIMENTAL_DETAILS: Test A postemergence
Format: in vivo
TEST_PARAMETERS: 500 g ai/ha, postemergence; visual injury, 0 to 100 scale (0 no effect, 100 complete control), approx. 10 d
Excerpt: […]
MEASUREMENT_NAME: Plant response rating, Kochia

Study these solved cases before continuing.
INSERT INTO measurements (molecule, measurement_name, obs_value) VALUES
  ('Cc1cccc(C2CN(C)C(=O)C2C(=O)Nc2ccccc2S(C)(=O)=O)c1 (stereo not shown) [Compound 668]', 'Plant response rating, Kochia', 20),
  ('Cc1cc(C2CNC(=O)C2C(=O)Nc2cccc(F)c2F)cs1 (racemic) [Compound 656]', 'Plant response rating, Kochia', 30),
  ('CN1CC(c2cc(F)cc(F)c2)C(C(=O)Nc2ccccc2F)C1=O (stereo not shown) [Compound 643]', 'Plant response rating, Kochia', 20),
  ('O=C1NCC(c2cccc(C(F)(F)F)c2)C1C(=O)Nc1ccc(F)cc1Cl (racemic) [Compound 676]', 'Plant response rating, Kochia', 0),
  ('O=C1NCC(c2cccc(OC(F)(F)C(F)F)c2)C1C(=O)Nc1cccc(F)c1F (racemic) [Compound 697]', 'Plant response rating, Kochia', 60),
  ('CN1CC(c2cccc(F)c2)C(C(=O)Nc2cccc(F)c2F)C1=O (stereo not shown) [Compound 632]', 'Plant response rating, Kochia', 60);

## Input Param item = C=CCOc1cccc(C2CNC(=O)C2(CC=C)C(=O)Nc2cccc(F)c2F)c1 (stereo not shown) [Compound 631] ; retrieve measured Plant response rating, Kochia.
## Output 0

###

System: rice (Oryra sativa)
EXPERIMENTAL_DETAILS: Test B flooded paddy test
Format: in vivo
TEST_PARAMETERS: Oryza sativa, Flood, 250 g ai/ha; scale of 0 to 100 where 0 is no effect and 100 is complete control; read-out: Rice plant response rating
MEASUREMENT_NAME: pest or weed control at 250 g/ha

# count of solved cases: 3
INSERT INTO assay_data (compound, experimental_system, measurement_name, obs_value) VALUES
  ('CCOc1cccc([C@H]2CN(C)C(=O)[C@@H]2C(=O)Nc2ccccc2F)c1 [Compound 955]', 'rice (Oryra sativa)', 'pest or weed control at 250 g/ha', '0%'),
  ('COc1cc(OC)cc([C@H]2CN(C)C(=O)[C@@H]2C(=O)Nc2ccccc2F)c1 [Compound 980]', 'rice (Oryra sativa)', 'pest or weed control at 250 g/ha', '30%'),
  ('Cc1ccc([C@H]2CNC(=S)[C@@H]2C(=O)Nc2cccc(F)c2F)cc1C [Compound 765]', 'rice (Oryra sativa)', 'pest or weed control at 250 g/ha', '20%');

Okay, now this compound:
## Input Give the reported pest or weed control at 250 g/ha for COc1ccc([C@H]2CNC(=O)[C@@H]2C(=O)Nc2ccccc2S(C)(=O)=O)cc1F [Compound 721] (system: rice (Oryra sativa)).
## Output 0%

###

// reported pest or weed control at 500 g/ha for each item listed
Test system: pigweed (Amaranthus retroflexus)
EXPERIMENTAL_DETAILS: Test A postemergence
Type: in vivo
TEST_PARAMETERS: Amaranthus retroflexus, post-emergence, 240 h, 500 g ai/ha, postemergence; 0 to 100 scale, 0 is no effect, 100 is complete control; read-out: Pigweed plant response rating
Express it in %; write the number only.

# annotated cases, reported pest or weed control at 500 g/ha shown
INSERT INTO assay_data (molecular_string, experimental_system, measurement_name, obs_value) VALUES
  ('CSc1ccccc1NC(=O)[C@H]1C(=O)N(C)C[C@@H]1c1ccc(OC(F)F)cc1', 'pigweed (Amaranthus retroflexus)', 'pest or weed control at 500 g/ha', 70),
  ('CN1C[C@H](c2csc3ccccc23)[C@@H](C(=O)Nc2cccc(F)c2F)C1=O', 'pigweed (Amaranthus retroflexus)', 'pest or weed control at 500 g/ha', 20),
  ('CN1C[C@H](c2csc3ccccc23)[C@@H](C(=O)Nc2ccccc2F)C1=O', 'pigweed (Amaranthus retroflexus)', 'pest or weed control at 500 g/ha', 0);

## Input Returns the measured pest or weed control at 500 g/ha for the input molecule. Input: `Cc1ccc([C@H]2CCN(C)C(=O)[C@@H]2C(=O)Nc2ccc(F)c(F)c2F)cc1`
## Output 0

###

Tested on: foxtail, giant (giant foxtail, Setaria faberii)
EXPERIMENTAL_DETAILS: Test C preemergence
Format: in vivo
TEST_PARAMETERS: 62 g ai/ha, scale 0 to 100, 0 no effect, 100 complete control
MEASUREMENT_NAME: Plant response rating, Foxtail, Giant

INSERT INTO assay_data (compound, measurement_name, obs_value) VALUES
  ('CN1CC(c2ccc(F)c(F)c2)C(C(=O)Nc2ccccc2C(F)(F)F)C1=O (stereo not shown) [Compound 641]', 'Plant response rating, Foxtail, Giant', 90);

## Input Can you share its Plant response rating, Foxtail, Giant? I mean this compound: O=C1NCC(c2ccc(I)cc2)C1C(=O)Nc1cccc(F)c1F (racemic) [Compound 700]
## Output 85

## Input Item under review: O=C1NCC(c2cccc(OC(F)(F)C(F)F)c2)C1C(=O)Nc1ccc(F)c(F)c1F (racemic) [Compound 698] . Reported Plant response rating, Foxtail, Giant?
## Output 90

## Input # input compound: CN1C[C@H](c2ccc(F)c(F)c2)[C@@H](C(=O)Nc2ccccc2F)C1=O [Compound 596] ; wanted: its Plant response rating, Foxtail, Giant
## Output 90

###

Test system: barnyardgrass (Echinochloa crus-galli)
EXPERIMENTAL_DETAILS: Test A preemergence
Format: in vivo
TEST_PARAMETERS: Echinochloa crus-galli, pre-emergence, 240 h, 125 g ai/ha, preemergence; visual injury rating, 0 to 100 scale where 0 is no effect and 100 is complete control; approximately 10 d; read-out: Barnyardgrass plant response rating
Catalogue of pest or weed control at 125 g/ha values
Write the value in % as a bare number.

These recorded examples may help you get a feel for the data.
INSERT INTO results (compound, measurement_name, reading_unit, obs_value) VALUES
  ('O=C(Nc1cccc(F)c1F)C1C(=O)N(CC(F)F)CC1c1cccc(C(F)(F)F)c1 (stereo not drawn)', 'pest or weed control at 125 g/ha', '%', 50),
  ('O=C1NC[C@H](c2cccc(C(F)(F)F)c2)C1C(=O)Nc1ccccc1CO (stereo partly drawn)', 'pest or weed control at 125 g/ha', '%', 80);

## Input Given the compound `CSc1ccccc1NC(=O)[C@H]1C(=O)N(C)C[C@@H]1c1ccc(C)cc1` , what is its reported pest or weed control at 125 g/ha?
## Output 100

## Input Can you share its pest or weed control at 125 g/ha? I mean this compound: `Cc1ccc([C@H]2CN(C)C(=O)[C@@H]2C(=O)Nc2cccc(F)c2C)cc1`
## Output 100

## Input # lookup: pest or weed control at 125 g/ha of `Cc1c(F)cccc1NC(=O)[C@H]1C(=O)N(C)C[C@@H]1c1ccc2c(c1)C(F)(F)C(F)(F)O2`
## Output 90

## Input For `Cc1c(F)cccc1NC(=O)[C@H]1C(=O)N(C)C[C@@H]1c1ccc(C(F)(F)F)nc1` , what is its reported pest or weed control at 125 g/ha?
## Output 100

###

Test system: giant foxtail (Setaria faberi)
EXPERIMENTAL_DETAILS: Test G Post-Emergence Protocol
Assay type: in vivo
TEST_PARAMETERS: Setaria faberi, post-emergence, 312 h, 250 g ai/ha, evaluated after 13 days, 100=total damage to plant, 0=no damage to plant, read-out: Foxtail, Giant damage rating
# reported pest or weed control at 250 g/ha; entries follow
Numbers only here, please. The scale is %.

INSERT INTO results (molecule, obs_value) VALUES
  ('Cc1cc(C2CN(C)C(=O)C2C(=O)Nc2cccc(F)c2F)cc(C(F)(F)F)c1 (stereo not drawn) [Compound 1723]', 80),
  ('CN1C[C@H](c2ccc(C(F)(F)F)cc2)[C@@H](C(=O)Nc2cnccc2[S+](C)[O-])C1=O (mixture of isomers) [Compound 1751]', 10);

## Input Give the measured pest or weed control at 250 g/ha of Cc1c(F)cccc1NC(=O)[C@@H]1C(=O)N(C)C[C@H]1c1ccc2nonc2c1 (racemic) [Compound 1818] .
## Output 80

###

Tested on: wheat (Triticum aestivum)
EXPERIMENTAL_DETAILS: Test A postemergence
Format: in vivo
TEST_PARAMETERS: Triticum aestivum, post-emergence, 240 h, 125 g ai/ha, postemergence, visual injury rating after approximately 10 d; read-out: Wheat plant response rating (0 to 100 scale, 0 no effect, 100 complete control)
Reported values of plant injury at 125 g/ha for individual entries
Report the value in % with no unit label.

Below, each entry is followed by its recorded plant injury at 125 g/ha result.
INSERT INTO measurements (molecule, experimental_system, obs_value) VALUES
  ('CN1C[C@H](c2cc(F)c(C(F)(F)F)c(F)c2)[C@@H](C(=O)Nc2cccc(F)c2F)C1=O [Compound 898]', 'wheat (Triticum aestivum)', 40),
  ('COc1c(F)ccc([C@H]2CNC(=O)[C@@H]2C(=O)Nc2ccccc2F)c1Cl [Compound 881]', 'wheat (Triticum aestivum)', 0),
  ('CN1C[C@H](c2ccc(C(F)(F)F)c(Br)c2)[C@@H](C(=O)Nc2cccc(F)c2F)C1=O [Compound 804]', 'wheat (Triticum aestivum)', 20),
  ('CN1C[C@H](c2cccc(C3CC3)c2)[C@@H](C(=O)Nc2ccccc2F)C1=O [Compound 815]', 'wheat (Triticum aestivum)', 30),
  ('O=C1NC[C@H](c2ccc3c(c2)CCCO3)[C@H]1C(=O)Nc1ccccc1F [Compound 885]', 'wheat (Triticum aestivum)', 0),
  ('CN1CC[C@H](c2cccc(OC(F)(F)F)c2)[C@@H](C(=O)Nc2ccc(F)c(F)c2F)C1=O [Compound 808]', 'wheat (Triticum aestivum)', 0);

## Input Entry under review: Cc1c(F)ccc([C@H]2CN(C)C(=O)[C@@H]2C(=O)Nc2ccccc2C(F)(F)F)c1F [Compound 841] . Reported plant injury at 125 g/ha?
## Output 0

## Input Given the molecule CN1C[C@H](c2cccc(COC(F)F)c2)[C@@H](C(=O)Nc2ccccc2S(C)(=O)=O)C1=O [Compound 877] , what is its reported plant injury at 125 g/ha?
## Output 30

## Input What plant injury at 125 g/ha value was documented for this molecule, CN1CC[C@H](c2ccc3c(c2)OC(F)(F)O3)[C@@H](C(=O)Nc2cccc(F)c2F)C1=O [Compound 812] ?
## Output 60
